Values from patent US10752588B2

test: Plasma stability, human; type: in vitro ADME
Provide the recorded Plasma Stability: % remaining after 5 hours for the entries that follow.

Known results for molecules:
                                   molecule  result
0  O=C(NC(c1ccc(C(F)(F)F)cc1)c1ccccn1)C1CCN(CCOc2ccccc2)CC1 (centres unmarked)   94.2%
1  O=C(NC(c1ccc(Cl)cc1)c1cccnc1)C1CCN(CCOc2ccccc2)CC1 (centres unmarked)    100%
2  O=C(NC(c1ccccn1)C1CCCCC1)C1CCN(CCOc2ccccc2)CC1 (centres unmarked)    100%
3  O=C(NC(c1ccc(F)cc1)c1ccccn1)C1CCN(CCOc2ccccc2)CC1 (centres unmarked)    100%
4  O=C(NC(c1ccccc1)c1ccc(F)cc1)C1CCN(CCOc2ccccc2)CC1 (centres unmarked)     95%

For each of the items listed, what is its Plasma Stability: % remaining after 5 hours?
1. O=C(NC(c1ccc(Cl)cc1)c1ccccc1F)C1CCN(CCOc2ccccc2)CC1 (centres unmarked)
2. O=C(NC(c1ccc(Cl)cc1)c1ccccn1)C1CCN(CCOc2ccc(F)cc2)CC1 (centres unmarked)

1: 100%; 2: 91.2%
